Field: pIC50. Provide a value for each of the molecules that follow.
Test: Inhibition of rat liver microsomal Steroid 5-alpha-reductase after 30 mins by scintillation counting
Remember, pIC50 is on a log scale: it is -log10 of the molar concentration.

Let me know recorded pIC50 for "CC1=C(/C=C/C(C)=C/C=C/C(C)=C/C(=O)O[C@@H]2Cc3c(O)cc(O)cc3O[C@@H]2c2cc(O)c(O)c(O)c2)C(C)(C)CCC1" , thanks.
6.12

Let me know recorded pIC50 for "CCCCCCCCCCCCCC(=O)O[C@@H]1Cc2c(O)cc(O)cc2O[C@@H]1c1cc(O)c(O)c(O)c1" , thanks.
6.22

Let me know recorded pIC50 for "CCCCCC/C=C\CCCCCCCC(=O)O[C@@H]1Cc2c(O)cc(O)cc2O[C@@H]1c1cc(O)c(O)c(O)c1" , thanks.
6.32

Let me know recorded pIC50 for "CCCCCCCC/C=C\CCCCCCCC(=O)O[C@@H]1Cc2c(O)cc(O)cc2O[C@@H]1c1cc(O)c(O)c(O)c1" , thanks.
6.13

Let me know recorded pIC50 for "CC/C=C\C/C=C\C/C=C\CCCCCCCC(=O)O[C@@H]1Cc2c(O)cc(O)cc2O[C@@H]1c1cc(O)c(O)c(O)c1" , thanks.
6.11

Let me know recorded pIC50 for "CC(C)=CCC/C(C)=C/C(=O)O[C@@H]1Cc2c(O)cc(O)cc2O[C@@H]1c1cc(O)c(O)c(O)c1" , thanks.
5.65

Let me know recorded pIC50 for "CCCCCCC/C=C/C(=O)O[C@@H]1Cc2c(O)cc(O)cc2O[C@@H]1c1cc(O)c(O)c(O)c1" , thanks.
5.61

Let me know recorded pIC50 for CC(C)(C)C1CCC(C(=O)O[C@@H]2Cc3c(O)cc(O)cc3O[C@@H]2c2cc(O)c(O)c(O)c2)CC1 (stereo partly specified) , thanks.
5.92

Let me know recorded pIC50 for "Cc1ccc(C(=O)O[C@@H]2Cc3c(O)cc(O)cc3O[C@@H]2c2cc(O)c(O)c(O)c2)cc1" , thanks.
5.88

Let me know recorded pIC50 for "O=C(O[C@@H]1Cc2c(O)cc(O)cc2O[C@@H]1c1cc(O)c(O)c(O)c1)c1ccc(Cl)cc1" , thanks.
5.80

Let me know recorded pIC50 for "CCCCCCCCCCCCCCCCCC(=O)O[C@@H]1Cc2c(O)cc(O)cc2O[C@@H]1c1cc(O)c(O)c(O)c1" , thanks.
6.14

----------
Species on record: Rattus norvegicus
Assay: Inhibition of rat liver microsomal Steroid 5-alpha-reductase at 5 uM after 30 mins by scintillation counting
Lab note: anything with inhibition at or over 20% counts as true (1); the rest go in false (0).

Say whether "C/C=C(\C)C(=O)O[C@@H]1Cc2c(O)cc(O)cc2O[C@@H]1c1cc(O)c(O)c(O)c1" shows inhibition of 20% or more.
true (1)

Say whether "CC(=O)O[C@@H]1Cc2c(O)cc(O)cc2O[C@@H]1c1cc(O)c(O)c(O)c1" shows inhibition of 20% or more.
false (0)

Say whether "CCCCCCCC(=O)O[C@@H]1Cc2c(O)cc(O)cc2O[C@@H]1c1cc(O)c(O)c(O)c1" shows inhibition of 20% or more.
true (1)

Say whether "COc1cc(OC)c2c(c1)O[C@H](c1cc(OC)c(OC)c(OC)c1)[C@H](OC(=O)c1cc(OC)c(OC)c(OC)c1)C2" shows inhibition of 20% or more.
false (0)

Say whether "O=C(Nc1ccc2ccccc2c1)O[C@@H]1Cc2c(O)cc(O)cc2O[C@@H]1c1cc(O)c(O)c(O)c1" shows inhibition of 20% or more.
true (1)

Say whether "O=C(Nc1ccc(Cl)cc1)O[C@@H]1Cc2c(O)cc(O)cc2O[C@@H]1c1cc(O)c(O)c(O)c1" shows inhibition of 20% or more.
false (0)

Say whether "CC(C)=CC(=O)O[C@@H]1Cc2c(O)cc(O)cc2O[C@@H]1c1cc(O)c(O)c(O)c1" shows inhibition of 20% or more.
true (1)

Say whether "CCCCCCCCCCCCCCCCCCCCCC(=O)O[C@@H]1Cc2c(O)cc(O)cc2O[C@@H]1c1cc(O)c(O)c(O)c1" shows inhibition of 20% or more.
true (1)

Say whether "CCCCCCCCCCCCCCCCCCCC(=O)O[C@@H]1Cc2c(O)cc(O)cc2O[C@@H]1c1cc(O)c(O)c(O)c1" shows inhibition of 20% or more.
true (1)

Say whether "CCCC(=O)O[C@@H]1Cc2c(O)cc(O)cc2O[C@@H]1c1cc(O)c(O)c(O)c1" shows inhibition of 20% or more.
true (1)

Say whether "CC(=O)Oc1cc(OC(C)=O)c2c(c1)O[C@H](c1cc(OC(C)=O)c(OC(C)=O)c(OC(C)=O)c1)[C@H](OC(=O)c1cc(OC(C)=O)c(OC(C)=O)c(OC(C)=O)c1)C2" shows inhibition of 20% or more.
false (0)

Say whether "CCCCCC(=O)O[C@@H]1Cc2c(O)cc(O)cc2O[C@@H]1c1cc(O)c(O)c(O)c1" shows inhibition of 20% or more.
true (1)

Say whether "Cc1ccc(NC(=O)O[C@@H]2Cc3c(O)cc(O)cc3O[C@@H]2c2cc(O)c(O)c(O)c2)cc1" shows inhibition of 20% or more.
false (0)

Say whether "C#CCCCC(=O)O[C@@H]1Cc2c(O)cc(O)cc2O[C@@H]1c1cc(O)c(O)c(O)c1" shows inhibition of 20% or more.
true (1)

----------
Experiment: Inhibition of rat liver microsomal Steroid 5-alpha-reductase after 30 mins by scintillation counting
measured.property: pIC50
Remember, pIC50 is on a log scale: it is -log10 of the molar concentration.

Let me know recorded pIC50 for "CCCCCCCCCCCCCCCC(=O)O[C@@H]1Cc2c(O)cc(O)cc2O[C@@H]1c1cc(O)c(O)c(O)c1" , thanks.
6.28

Let me know recorded pIC50 for "CCCCCCCCCC(=O)O[C@@H]1Cc2c(O)cc(O)cc2O[C@@H]1c1cc(O)c(O)c(O)c1" , thanks.
5.53

Let me know recorded pIC50 for O=C(O[C@@H]1Cc2c(O)cc(O)cc2O[C@@H]1c1cc(O)c(O)c(O)c1)c1cc(O)c(O)c(O)c1 [EPIGALOCATECHIN GALLATE] , thanks.
5.20

Let me know recorded pIC50 for "CCCCCCCCCCCC(=O)O[C@@H]1Cc2c(O)cc(O)cc2O[C@@H]1c1cc(O)c(O)c(O)c1" , thanks.
6.11
